B1: ZNF207 (parent)
chain: FPSAGQAQAAVQGPVGTDFKPLNS

# Variants of: B1
# EXPERIMENTAL DETAILS: protein stability index of a GFP-peptide fusion (GPS, HEK-293T) (PSI 1-6); higher = more stable;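 note: lentivirally expressed fusions sorted by FACS into six bins by GFP to DsRed ratio, PSI derived from sequencing read proportions per bin multiplied by bin number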
# EXPERIMENTAL CONTEXT: c terminus: a fixed tail appended
EXPERIMENTAL READOUT: protein stability index
# answer = number (no unit)

protein stability index for P14S is 3.34

protein stability index for A4C is 2.52

protein stability index for N23Y is 2.68

protein stability index for F1S is 5.11

protein stability index for F19Y is 3.79

protein stability index for Q12D is 3.69

protein stability index for K20P is 3.35

protein stability index for T17H is 3.26

protein stability index for A7E is 3.94

protein stability index for V11H is 3.74

protein stability index for T17I is 3.03

protein stability index for A4Q is 3.77

protein stability index for P2H is 2.26

protein stability index for Q6A is 3.72

protein stability index for Q6W is 1.47

protein stability index for N23R is 3.91

protein stability index for A9T is 2.99

protein stability index for A9C is 3.37

protein stability index for F1R is 5.18

protein stability index for K20S is 3.34
